- study-target: NMDA receptor
- Construct: Mean Ki; Mean Maximum effect
- method-summary: MK801 binding inhibition (NMDA receptor antagonist activity in vitro)
- applied-conditions: Table 1; inhibition of MK801 binding to the NMDA receptor; read-out: MK801 Binding IC50
pIC50: −log10 of the molar value.
So basically: pIC50 at 5 or higher? That is yes. Lower than 5? That is no.

CC(C)(c1ccccn1)[C@@H](N)c1cccc(F)c1
no
CC(C)(c1ccccn1)C(N)c1cccc(F)c1 (racemic)
yes
CC(C)(c1ccccn1)[C@H](N)c1ccccc1
yes
CC(C)(c1ccccn1)[C@H](N)c1cccc(F)c1
yes

Could you now consider this next molecule?
I'd appreciate it if you could say whether CC(C)(c1ccccn1)[C@@H](N)c1ccccc1 has pIC50 at least equal to 5. no

---

- study-target: NMDA receptor
- Construct: Mean Ki; Mean Maximum effect
- method-summary: MK801 binding inhibition (NMDA receptor antagonist activity in vitro)
- applied-conditions: Table 3; inhibition of MK801 binding to the NMDA receptor; listed as Ex 11; read-out: Mean IC50
property-name: IC50 (µM)
Write the answer as a number in µM, unit excluded.

Report IC50 for CC(C)(c1ccccn1)C(N)c1cccc(F)c1.O=C(O)/C=C/C(=O)O (single isomer, unassigned; stereoisomer 2) tested on NMDA receptor. 4.1

---

- study-target: NMDA receptor
- Construct: Mean Ki; Mean Maximum effect
- method-summary: MK801 binding inhibition (NMDA receptor antagonist activity in vitro)
- applied-conditions: Table 3; inhibition of MK801 binding to the NMDA receptor; listed as Ex 3; read-out: Mean IC50
property-name: pIC50
Convention used: pIC50 is expressed as -log10 of the molar concentration.

Report pIC50 for CC(C)(c1ccccn1)[C@@H](N)c1ccccc1 tested on NMDA receptor. 5.24

---

- study-target: NMDA receptor
- Construct: Mean Ki; Mean Maximum effect
- method-summary: MK801 binding inhibition (NMDA receptor antagonist activity in vitro)
- applied-conditions: Table 3; inhibition of MK801 binding to the NMDA receptor; listed as Ex 10
property-name: Ki
Reply with a number, then the unit it belongs to.

Requested field: Ki. Item: CC(C)(c1ccccn1)C(N)c1cccc(F)c1.O=C(O)/C=C/C(=O)O (single isomer, unassigned; stereoisomer 1) 15 µM

---

- study-target: NMDA receptor
- Construct: Mean Ki; Mean Maximum effect
- method-summary: MK801 binding inhibition (NMDA receptor antagonist activity in vitro)
- applied-conditions: Table 3; inhibition of MK801 binding to the NMDA receptor; listed as Ex 3
property-name: Ki (µM)
Write the answer as a number in µM, unit excluded.

Requested field: Ki. Item: CC(C)(c1ccccn1)[C@@H](N)c1ccccc1 1.8

---

Listed here are compounds together with their documented pIC50.
- study-target: Human NR1/NR2A channel (Homo sapiens, UniProt Q05586+Q12879)
- Sequence (Q12879 23-1464, other chains not shown): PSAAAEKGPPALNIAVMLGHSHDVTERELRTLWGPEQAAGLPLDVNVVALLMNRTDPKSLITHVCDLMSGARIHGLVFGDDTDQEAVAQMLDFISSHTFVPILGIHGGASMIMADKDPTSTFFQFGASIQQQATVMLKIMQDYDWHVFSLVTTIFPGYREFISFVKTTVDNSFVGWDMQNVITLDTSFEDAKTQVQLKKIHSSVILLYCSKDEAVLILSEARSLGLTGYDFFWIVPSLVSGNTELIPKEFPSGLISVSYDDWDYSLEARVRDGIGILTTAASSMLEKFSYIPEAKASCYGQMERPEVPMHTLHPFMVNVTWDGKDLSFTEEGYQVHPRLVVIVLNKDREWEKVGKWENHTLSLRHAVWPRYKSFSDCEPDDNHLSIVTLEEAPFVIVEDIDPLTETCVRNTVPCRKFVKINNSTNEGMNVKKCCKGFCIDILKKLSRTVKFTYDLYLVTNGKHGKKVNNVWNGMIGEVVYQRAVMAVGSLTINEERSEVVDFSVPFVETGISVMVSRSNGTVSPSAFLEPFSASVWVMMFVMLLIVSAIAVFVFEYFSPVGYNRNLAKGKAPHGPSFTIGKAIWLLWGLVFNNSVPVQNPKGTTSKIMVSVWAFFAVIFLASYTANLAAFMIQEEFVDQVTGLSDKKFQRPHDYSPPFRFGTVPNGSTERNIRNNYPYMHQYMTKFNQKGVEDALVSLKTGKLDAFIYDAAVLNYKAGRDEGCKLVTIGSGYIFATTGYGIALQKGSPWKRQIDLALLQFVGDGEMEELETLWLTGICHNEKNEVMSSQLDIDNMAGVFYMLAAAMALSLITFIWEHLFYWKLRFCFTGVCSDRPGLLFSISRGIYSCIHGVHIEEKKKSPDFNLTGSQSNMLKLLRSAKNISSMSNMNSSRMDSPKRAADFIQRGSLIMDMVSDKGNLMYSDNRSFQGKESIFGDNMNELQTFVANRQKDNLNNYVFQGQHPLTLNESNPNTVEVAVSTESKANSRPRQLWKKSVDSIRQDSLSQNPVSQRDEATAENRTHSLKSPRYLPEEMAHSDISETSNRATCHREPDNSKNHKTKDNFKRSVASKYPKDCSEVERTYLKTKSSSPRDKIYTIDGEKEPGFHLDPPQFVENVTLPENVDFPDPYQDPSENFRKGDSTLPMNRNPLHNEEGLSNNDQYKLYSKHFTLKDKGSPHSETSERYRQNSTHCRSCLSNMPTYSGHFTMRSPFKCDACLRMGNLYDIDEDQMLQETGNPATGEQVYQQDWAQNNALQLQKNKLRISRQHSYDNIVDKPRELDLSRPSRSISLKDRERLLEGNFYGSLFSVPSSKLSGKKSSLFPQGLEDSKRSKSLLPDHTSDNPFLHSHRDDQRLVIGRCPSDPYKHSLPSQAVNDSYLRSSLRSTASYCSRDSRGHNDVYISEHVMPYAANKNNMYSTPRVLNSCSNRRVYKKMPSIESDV
- method-summary: Automated patch clamp (QPatch16) block of NR1/NR2A channel currents in CHO-1H8 cells
- Format: cell-based
- applied-conditions: Table 4; NR1/NR2A currents, cells clamped at −60 mV, activated with 100 μM NMDA/10 μM Glycine, 0.41-33.33 μM compound; read-out: Mean IC50
Convention used: pIC50 is expressed as -log10 of the molar concentration.

CC(C)(c1ccccn1)[C@H](N)c1ccccc1
5.00

Report pIC50 for CC(C)(c1ccccn1)[C@@H](N)c1ccccc1 tested on Human NR1/NR2A channel (Homo sapiens, UniProt Q05586+Q12879). 5.52

---

- study-target: NMDA receptor
- Construct: Mean Ki; Mean Maximum effect
- method-summary: MK801 binding inhibition (NMDA receptor antagonist activity in vitro)
- applied-conditions: Table 3; inhibition of MK801 binding to the NMDA receptor; listed as Ex 8, fumarate salt
Structures can show the parent of a compound that is named as a salt.
property-name: Ki (µM)
Write the answer as a number in µM, unit excluded.

Report Ki for CC(C)(c1ccccn1)[C@@H](N)c1ccccc1 [Example 8, fumarate salt] tested on NMDA receptor. 3.2

---

- study-target: NMDA receptor
- Construct: Mean Ki; Mean Maximum effect
- method-summary: MK801 binding inhibition (NMDA receptor antagonist activity in vitro)
- applied-conditions: Table 3; inhibition of MK801 binding to the NMDA receptor; listed as Ex 10; read-out: Mean IC50
- Experimental: NMDA receptor antagonist activity can be measured in vitro by assaying a compound's ability to inhibit binding of the receptor antagonist 10,11-dihydro-5-methyl-5H-dibenzo[a,d]-cyclohepten-5,10-imine (MK801) to the receptor. […] NMDA receptor antagonist activity was measured in vitro by assaying a compound's ability to inhibit binding of the receptor antagonist 10,11-dihdro-5-methyl-5H-dibenzo[a,d]-cyclohepten-5,10-imine (MK801) to the receptor. […]
property-name: IC50 (µM)
Write the answer as a number in µM, unit excluded.

Requested field: IC50. Item: CC(C)(c1ccccn1)C(N)c1cccc(F)c1.O=C(O)/C=C/C(=O)O (single isomer, unassigned; stereoisomer 1) 25

---

- study-target: NMDA receptor
- Construct: Mean Ki; Mean Maximum effect
- method-summary: MK801 binding inhibition (NMDA receptor antagonist activity in vitro)
- applied-conditions: Table 3; inhibition of MK801 binding to the NMDA receptor; read-out: Mean IC50
Where a name gives a salt, the structure may show the parent alone.
Listed here are molecules together with their documented pIC50.
Convention used: pIC50 is expressed as -log10 of the molar concentration.

Worked cases, answers included:
CC(C)(c1ccccn1)C(N)c1cccc(F)c1.O=C(O)/C=C/C(=O)O (racemic)
5.49
CC(C)(c1ccccn1)C(N)c1ccccc1 (racemic)
4.92

API: the following record is the query input.
Requested field: pIC50. Item: N[C@@H](Cc1ccccn1)c1ccccc1 (single isomer, unassigned) [Example 13, dihydrochloride, reference compound] 5.18

---

- study-target: NMDA receptor
- Construct: Mean Ki; Mean Maximum effect
- method-summary: MK801 binding inhibition (NMDA receptor antagonist activity in vitro)
- applied-conditions: Table 3; inhibition of MK801 binding to the NMDA receptor; listed as Ex 11
property-name: pKi
Convention used: pKi is expressed as -log10 of the molar concentration.

Requested field: pKi. Item: CC(C)(c1ccccn1)C(N)c1cccc(F)c1.O=C(O)/C=C/C(=O)O (single isomer, unassigned; stereoisomer 2) [Example 11] 5.60

---

Listed here are compounds together with their documented Mean Maximum effect.
- Tested on: NMDA receptor
- Construct: Mean Ki; Mean Maximum effect
- method-summary: MK801 binding inhibition (NMDA receptor antagonist activity in vitro)
- applied-conditions: Table 3; inhibition of MK801 binding to the NMDA receptor
Counter-ions that a name gives are not always drawn.
Write the answer as a number in %, unit excluded.

CC(C)(c1ccccn1)C(N)c1ccccc1 (racemic)
75
CC(C)(c1ccccn1)C(N)c1cccc(F)c1.O=C(O)/C=C/C(=O)O (racemic)
83
N[C@@H](Cc1ccccn1)c1ccccc1 (single isomer, unassigned) [Example 13, dihydrochloride, reference compound]
89

Report Mean Maximum effect for CC(C)(c1ccccn1)[C@H](N)c1ccccc1 tested on NMDA receptor. 64
